# assay name: Cmax in Sprague-Dawley rat at 5 mg/kg, po
# Format: ADME, organism-based
# Set-up: route oral, dose 5 mg/kg
# measurement parameters: in vivo
assay endpoint: Cmax (ng/mL)

CC(C)(O)CCn1cc2cc(NC(=O)c3cccc(C(F)(F)F)n3)c(C(C)(C)O)cc2n1 ... 2310

---

# assay name: Volume of distribution at steady state in monkey at 0.5 mg/kg, iv
# Format: ADME, organism-based, Macaca mulatta
# measurement parameters: rhesus monkey, in vivo, read-out: Vdss
assay endpoint: Vd

CN(C)CCn1cc2cc(NC(=O)c3cccc(C(F)(F)F)n3)c(C(C)(C)O)cc2n1 ... 0.67 L/kg

---

# assay name: Oral bioavailability in mouse at 2 mg/kg
# Type: ADME, organism-based
# measurement parameters: in vivo
assay endpoint: bioavailability (%)

CN(C)CCn1cc2cc(NC(=O)c3cccc(C(F)(F)F)n3)c(C(C)(C)O)cc2n1 ... 67.3

---

# assay name: Apparent permeability across basolateral to apical side
# Assay type: ADME
# measurement parameters: not told
assay endpoint: Papp B→A (×10⁻⁶ cm/s)

CN(C)CCn1cc2cc(NC(=O)c3cccc(C(F)(F)F)n3)c(C(C)(C)O)cc2n1 ... 22.7

---

# assay name: Volume of distribution at steady state in dog at 0.5 mg/kg, iv
# Assay type: ADME, organism-based, Canis lupus familiaris
# measurement parameters: in vivo, read-out: Vdss
assay endpoint: Vd (L/kg)

CN(C)CCn1cc2cc(NC(=O)c3cccc(C(F)(F)F)n3)c(C(C)(C)O)cc2n1 ... 2.63

---

# assay name: AUC (0 to 24 hrs) in Sprague-Dawley rat at 10 mg/kg, po
# Format: ADME, organism-based
# Set-up: time < 24 hr, route oral, dose 10 mg/kg
# measurement parameters: in vivo
assay endpoint: AUC(0-t) at 24 h (ng·h/mL)

COc1cc(NC(=O)c2cccc(C(F)(F)F)n2)cc2cn(CCC(C)(C)O)nc12 ... 34500
CN(C)CCn1cc2cc(NC(=O)c3cccc(C(F)(F)F)n3)c(C(C)(C)O)cc2n1 ... 11900

---

# assay name: Metabolic stability in monkey liver microsomes assessed as intrinsic clearance
# Format: ADME, Macaca mulatta, Microsome
# measurement parameters: rhesus monkey, read-out: CLH
assay endpoint: CLint scaled (mL/min/kg)

CN(C)CCn1cc2cc(NC(=O)c3cccc(C(F)(F)F)n3)c(C(C)(C)O)cc2n1 ... 1.96

---

# assay name: AUC(0 to 24 hrs) in mouse at 1 mg/kg, iv
# Assay type: ADME, organism-based
# Design: time < 24 hr, route intravenous, dose 1 mg/kg
# measurement parameters: in vivo
assay endpoint: AUC(0-t) at 24 h (µg·h/mL)

CN(C)CCn1cc2cc(NC(=O)c3cccc(C(F)(F)F)n3)c(C(C)(C)O)cc2n1 ... 0.966

---

# assay name: Apparent permeability across apical to basolateral side
# Assay type: ADME
# measurement parameters: not told
assay endpoint: Papp A→B (×10⁻⁶ cm/s)

CN(C)CCn1cc2cc(NC(=O)c3cccc(C(F)(F)F)n3)c(C(C)(C)O)cc2n1 ... 27.3

---

# assay name: Oral bioavailability in monkey at 2 mg/kg
# Assay type: ADME, organism-based, Macaca mulatta
# measurement parameters: rhesus monkey, in vivo
assay endpoint: bioavailability (%)

CN(C)CCn1cc2cc(NC(=O)c3cccc(C(F)(F)F)n3)c(C(C)(C)O)cc2n1 ... 49

---

Recorded measurements of CLint scaled, one per entry
# assay name: Metabolic stability in mouse liver microsomes assessed as intrinsic clearance
# Format: ADME, Microsome
# measurement parameters: read-out: CLH
assay endpoint: CLint scaled (mL/min/kg)

CC(C)(O)CCn1cc2cc(NC(=O)c3cccc(C(F)(F)F)n3)c(C(C)(C)O)cc2n1 ... 3.91
CN(C)CCn1cc2cc(NC(=O)c3cccc(C(F)(F)F)n3)c(C(C)(C)O)cc2n1 ... 8.82

---

# assay name: Volume of distribution at steady state in mouse at 1 mg/kg, iv
# Assay type: ADME, organism-based
# measurement parameters: in vivo, read-out: Vdss
assay endpoint: Vd (L/kg)

CN(C)CCn1cc2cc(NC(=O)c3cccc(C(F)(F)F)n3)c(C(C)(C)O)cc2n1 ... 2.43

---

# assay name: Cmax in Sprague-Dawley rat at 10 mg/kg, po
# Format: ADME, organism-based
# Set-up: route oral, dose 10 mg/kg
# measurement parameters: in vivo
Reported values of Cmax for individual entries
assay endpoint: Cmax (ng/mL)

CN(C)CCn1cc2cc(NC(=O)c3cccc(C(F)(F)F)n3)c(C(C)(C)O)cc2n1 ... 2110
COc1cc(NC(=O)c2cccc(C(F)(F)F)n2)cc2cn(CCC(C)(C)O)nc12 ... 3320

---

# assay name: Protein binding in human plasma
# Type: ADME, cell-free
# measurement parameters: read-out: PPB (converted)
assay endpoint: fraction unbound

CN(C)CCn1cc2cc(NC(=O)c3cccc(C(F)(F)F)n3)c(C(C)(C)O)cc2n1 ... 0.014

---

# assay name: AUC (0 to 24 hrs) in monkey at 2 mg/kg, po
# Assay type: ADME, organism-based, Macaca mulatta
# Set-up: time < 24 hr, route oral, dose 2 mg/kg
# measurement parameters: rhesus monkey, in vivo
assay endpoint: AUC(0-t) at 24 h (ng·h/mL)

CN(C)CCn1cc2cc(NC(=O)c3cccc(C(F)(F)F)n3)c(C(C)(C)O)cc2n1 ... 3670

---

# assay name: Half life in Sprague-Dawley rat at 5 mg/kg, po
# Type: ADME, organism-based
# measurement parameters: in vivo
assay endpoint: half-life (h)

CC(C)(O)CCn1cc2cc(NC(=O)c3cccc(C(F)(F)F)n3)c(C(C)(C)O)cc2n1 ... 3.6

---

# assay name: Oral bioavailability in dog at 2 mg/kg
# Type: ADME, organism-based, Canis lupus familiaris
# measurement parameters: in vivo
assay endpoint: bioavailability (%)

CN(C)CCn1cc2cc(NC(=O)c3cccc(C(F)(F)F)n3)c(C(C)(C)O)cc2n1 ... 14.4

---

# assay name: Oral bioavailability in Sprague-Dawley rat at 5 mg/kg
# Assay type: ADME, organism-based
# measurement parameters: in vivo
assay endpoint: bioavailability (%)

CC(C)(O)CCn1cc2cc(NC(=O)c3cccc(C(F)(F)F)n3)c(C(C)(C)O)cc2n1 ... 84

---

# assay name: Half life in mouse at 1 mg/kg, iv
# Assay type: ADME, organism-based
# measurement parameters: in vivo
assay endpoint: half-life (h)

CN(C)CCn1cc2cc(NC(=O)c3cccc(C(F)(F)F)n3)c(C(C)(C)O)cc2n1 ... 1.62

---

# assay name: Half life in dog at 0.5 mg/kg, iv
# Assay type: ADME, organism-based, Canis lupus familiaris
# measurement parameters: in vivo
assay endpoint: half-life (min)

CN(C)CCn1cc2cc(NC(=O)c3cccc(C(F)(F)F)n3)c(C(C)(C)O)cc2n1 ... 43.2

---

# assay name: Clearance in mouse at 1 mg/kg, iv
# Assay type: ADME, organism-based
# measurement parameters: in vivo
assay endpoint: clearance (mL/min/kg)

CN(C)CCn1cc2cc(NC(=O)c3cccc(C(F)(F)F)n3)c(C(C)(C)O)cc2n1 ... 17.1

---

# assay name: in vivo
# measurement parameters: Sprague-Dawley, rat, iv, 1 mg/kg
# Description: Clearance in Sprague-Dawley rat at 1 mg/kg, iv
assay endpoint: clearance (mL/min/kg)

CN(C)CCn1cc2cc(NC(=O)c3cccc(C(F)(F)F)n3)c(C(C)(C)O)cc2n1 ... 8.3
COc1cc(NC(=O)c2cccc(C(F)(F)F)n2)cc2cn(CCC(C)(C)O)nc12 ... 5.5

---

# assay name: Half life in monkey at 0.5 mg/kg, iv
# Format: ADME, organism-based, Macaca mulatta
# measurement parameters: rhesus monkey, in vivo
assay endpoint: half-life (h)

CN(C)CCn1cc2cc(NC(=O)c3cccc(C(F)(F)F)n3)c(C(C)(C)O)cc2n1 ... 1.96
